test target: (Lyso)-N-acylphosphatidylethanolamine lipase (Mus musculus) (UniProt Q8VD66)
Sequence (Q8VD66 whole entry, looked up): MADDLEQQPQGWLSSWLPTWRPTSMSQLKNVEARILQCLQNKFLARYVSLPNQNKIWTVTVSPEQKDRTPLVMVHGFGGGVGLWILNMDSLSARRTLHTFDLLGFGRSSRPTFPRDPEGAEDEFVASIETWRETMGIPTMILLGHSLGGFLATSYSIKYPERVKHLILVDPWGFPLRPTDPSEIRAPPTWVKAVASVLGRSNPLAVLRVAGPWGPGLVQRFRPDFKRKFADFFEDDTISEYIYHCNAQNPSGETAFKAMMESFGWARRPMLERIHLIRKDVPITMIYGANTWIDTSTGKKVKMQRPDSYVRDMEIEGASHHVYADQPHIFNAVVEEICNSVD
experimental protocol: ABHD4 inhibitors, retest, confirmation, biochemical, fluorescence polarization, mouse (AID 720658)
test context: purified mABHD4, FP-Rh probe fluorescence polarization; at 8.92 µM
The other results are listed elsewhere or left out. The source made the active and inactive calls.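 The calls were made as follows: active = mean inhibition across replicates above the hit cutoff set in the primary screen (cut at about 30% in these data); inactive = the rest.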
Result category, one only: t (active), f (inactive)

What was the test verdict on N#C/C(=C\c1ccc(O)c(O)c1)C(=O)NCc1ccccc1 ?
t

What was the test verdict on CN(C)c1ccc(N/C=C/C(=O)C(F)(F)F)cc1 ?
f

What was the test verdict on CCN(CC)CCCC(C)n1c2nc(=O)[nH]c(=O)c-2nc2cc(Cl)ccc21 (stereo unspecified) ?
t

What was the test verdict on Cc1cc(/C=N/Nc2ccc([N+](=O)[O-])cn2)c(C)n1-c1cccc(C(=O)O)c1 ?
t

What was the test verdict on Cc1cc2nc3c(=O)n(Cc4ccccc4)c(=O)[nH]c3nc2cc1N ?
t

What was the test verdict on COC(=O)c1oc2ccc(Br)cc2c1NC(C)=O ?
f
